# key: entry, value: Emax
- study_target: M3 muscarinic receptor (Homo sapiens, UniProt P20309)
- Construct: expressed in transfected cells; host or cells: CHO (M3-CHO)
- Sequence (P20309 whole entry): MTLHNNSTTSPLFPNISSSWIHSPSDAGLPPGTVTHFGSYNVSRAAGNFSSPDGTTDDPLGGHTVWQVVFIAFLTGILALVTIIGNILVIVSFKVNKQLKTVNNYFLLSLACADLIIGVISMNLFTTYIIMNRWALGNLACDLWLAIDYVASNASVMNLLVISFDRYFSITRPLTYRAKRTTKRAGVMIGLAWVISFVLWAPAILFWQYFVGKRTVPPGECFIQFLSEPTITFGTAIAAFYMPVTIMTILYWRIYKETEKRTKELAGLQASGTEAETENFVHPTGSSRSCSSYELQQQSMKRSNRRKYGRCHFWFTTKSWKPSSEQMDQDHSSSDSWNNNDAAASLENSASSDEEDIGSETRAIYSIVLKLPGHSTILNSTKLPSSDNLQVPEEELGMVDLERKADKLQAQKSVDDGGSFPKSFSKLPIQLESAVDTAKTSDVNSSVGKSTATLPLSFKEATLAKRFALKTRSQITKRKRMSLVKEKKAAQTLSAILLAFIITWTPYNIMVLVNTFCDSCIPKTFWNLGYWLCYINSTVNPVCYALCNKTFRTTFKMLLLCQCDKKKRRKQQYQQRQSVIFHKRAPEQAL
- assay_comment: Functional mobilization of intracellular calcium (FLIPR) in CHO cells expressing M3
- Assay type: cell-based
- test_context: CHO; 100% efficacy = maximum response obtained with the Carbachol control
measurement_name: Emax

INSERT INTO results (compound, study_target, result) VALUES
  ('CC(=O)N[C@H]1CC2(CCN(C(=O)OC(C)(C)C)CC2)c2ccc(C)cc21', 'M3 muscarinic receptor (Homo sapiens, UniProt P20309)', '< 25%'),
  ('CC(C)COC(=O)N(C)[C@H]1CCC2(CCN(CCC(C)(C)C)CC2)c2ccccc21', 'M3 muscarinic receptor (Homo sapiens, UniProt P20309)', '< 25%'),
  ('CCN(CC)C(=O)CN1CCC2(CC1)C[C@H](NC(C)=O)c1ccccc12', 'M3 muscarinic receptor (Homo sapiens, UniProt P20309)', '< 25%'),
  ('Cc1cc(C(=O)N[C@@H]2CCC3(CCN(CCC(C)(C)C)CC3)c3ccccc32)nn1C', 'M3 muscarinic receptor (Homo sapiens, UniProt P20309)', '< 25%'),
  ('CC(=O)N[C@H]1CC2(CCN(C(C)CC(C)C)CC2)c2ccccc21 (stereo partly drawn)', 'M3 muscarinic receptor (Homo sapiens, UniProt P20309)', '< 25%'),
  ('CC(C)(C)CCN1CCC2(CC[C@@H](NC(=O)C3CCCO3)c3ccccc32)CC1 (stereo partly drawn)', 'M3 muscarinic receptor (Homo sapiens, UniProt P20309)', '< 25%');

---

- study_target: M1 muscarinic receptor (Homo sapiens, UniProt P11229)
- Construct: expressed in transfected cells; host or cells: CHO (M1-CHO)
- Sequence (P11229 whole entry): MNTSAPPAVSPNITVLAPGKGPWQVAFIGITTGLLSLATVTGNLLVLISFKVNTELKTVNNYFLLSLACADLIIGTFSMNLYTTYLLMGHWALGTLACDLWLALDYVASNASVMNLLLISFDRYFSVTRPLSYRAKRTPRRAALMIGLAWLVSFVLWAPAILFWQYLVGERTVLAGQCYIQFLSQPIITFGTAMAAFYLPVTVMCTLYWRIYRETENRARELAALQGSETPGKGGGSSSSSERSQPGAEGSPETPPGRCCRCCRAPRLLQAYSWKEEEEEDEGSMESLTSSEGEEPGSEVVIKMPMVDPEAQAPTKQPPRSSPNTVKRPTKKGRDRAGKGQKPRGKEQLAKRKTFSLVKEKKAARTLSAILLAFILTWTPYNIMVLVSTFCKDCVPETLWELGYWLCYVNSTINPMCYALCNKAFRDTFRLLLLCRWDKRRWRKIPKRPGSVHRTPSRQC
- assay_comment: Functional mobilization of intracellular calcium (FLIPR) in CHO cells expressing M1
- Assay type: cell-based
- test_context: CHO cells expressing M1, FLIPR calcium
# key: entry, value: EC50
measurement_name: EC50

INSERT INTO measurements (molecule, study_target, result) VALUES
  ('CC(=O)N1CCCC1C(=O)N[C@H]1CCC2(CCN(CCC(C)(C)C)CC2)c2ccccc21 (stereo partly drawn)', 'M1 muscarinic receptor (Homo sapiens, UniProt P11229)', '< 2 µM'),
  ('C[C@@H](C(=O)N[C@@H]1CCC2(CCN(CCC(C)(C)C)CC2)c2cc(F)ccc21)N1CCCC1=O', 'M1 muscarinic receptor (Homo sapiens, UniProt P11229)', '2 to 5 µM'),
  ('CCC(=O)N[C@H]1CCC2(CCN(CCC(C)(C)C)CC2)c2ccccc21', 'M1 muscarinic receptor (Homo sapiens, UniProt P11229)', '< 2 µM'),
  ('CC(=O)N[C@H]1CCC2(CCN(CCC(C)CCC=C(C)C)CC2)c2ccccc21 (stereo partly drawn)', 'M1 muscarinic receptor (Homo sapiens, UniProt P11229)', '< 2 µM'),
  ('CC(=O)N1CCCC(C(=O)N[C@H]2CCC3(CCN(CCC(C)(C)C)CC3)c3ccccc32)C1 (stereo partly drawn)', 'M1 muscarinic receptor (Homo sapiens, UniProt P11229)', '< 2 µM'),
  ('CC(=O)NCC(=O)N[C@H]1CCC2(CCN(CCC(C)(C)C)CC2)c2cc(F)ccc21', 'M1 muscarinic receptor (Homo sapiens, UniProt P11229)', '< 2 µM'),
  ('CCC(CC)CN1CCC2(CC[C@H](NC(C)=O)c3ccccc32)CC1', 'M1 muscarinic receptor (Homo sapiens, UniProt P11229)', '< 2 µM'),
  ('C[C@@H](C(=O)N[C@@H]1CCC2(CCN(CCC(C)(C)C)CC2)c2ccccc21)N1CCCC1=O', 'M1 muscarinic receptor (Homo sapiens, UniProt P11229)', '> 5 µM'),
  ('CC(=O)N[C@H](C)C(=O)N[C@@H]1CCC2(CCN(CCC(C)(C)C)CC2)c2ccccc21 [compound 14]', 'M1 muscarinic receptor (Homo sapiens, UniProt P11229)', '> 5 µM'),
  ('CC(C)(C)CCN1CCC2(CC[C@@H](NC(=O)C3CCCN(C(=O)C4CC4)C3)c3ccccc32)CC1 (stereo partly drawn)', 'M1 muscarinic receptor (Homo sapiens, UniProt P11229)', '2 to 5 µM'),
  ('CCOC(=O)N[C@H]1CCC2(CCN(CCC(C)(C)C)CC2)c2ccccc21', 'M1 muscarinic receptor (Homo sapiens, UniProt P11229)', '< 2 µM'),
  ('CC(=O)N1CCCC[C@H]1C(=O)N[C@H]1CCC2(CCN(CCC(C)(C)C)CC2)c2cc(F)ccc21', 'M1 muscarinic receptor (Homo sapiens, UniProt P11229)', '< 2 µM'),
  ('CC(C)(C)CCN1CCC2(CC[C@@H](NC(=O)Cc3cccnc3)c3ccc(F)cc32)CC1', 'M1 muscarinic receptor (Homo sapiens, UniProt P11229)', '< 2 µM'),
  ('CCN(C(=O)C1CCOCC1)[C@H]1CCC2(CCN(CCC(C)(C)C)CC2)c2ccccc21', 'M1 muscarinic receptor (Homo sapiens, UniProt P11229)', '> 5 µM'),
  ('CC(=O)N1CCCCC1C(=O)N[C@H]1CCC2(CCN(CCC(C)(C)C)CC2)c2ccccc21 (stereo partly drawn)', 'M1 muscarinic receptor (Homo sapiens, UniProt P11229)', '< 2 µM'),
  ('CC(C)(C)CCN1CCC2(CC[C@H](NS(C)(=O)=O)c3ccccc32)CC1', 'M1 muscarinic receptor (Homo sapiens, UniProt P11229)', '< 2 µM'),
  ('CC(C)(C)CCN1CCC2(CC[C@@H](NC(=O)CN3CCCCCC3=O)c3ccccc32)CC1', 'M1 muscarinic receptor (Homo sapiens, UniProt P11229)', '< 2 µM'),
  ('C[C@H](C(=O)N[C@H]1CCC2(CCN(CCC(C)(C)C)CC2)c2cc(F)ccc21)N1CCCC1=O', 'M1 muscarinic receptor (Homo sapiens, UniProt P11229)', '< 2 µM'),
  ('CC#CCN(C(C)=O)[C@H]1CCC2(CCN(CCC(C)(C)C)CC2)c2ccccc21', 'M1 muscarinic receptor (Homo sapiens, UniProt P11229)', '< 2 µM'),
  ('CC(C)(C)CCN1CCC2(CC[C@@H](NC(=O)[C@@H]3CCC(=O)N3)c3ccc(F)cc32)CC1', 'M1 muscarinic receptor (Homo sapiens, UniProt P11229)', '2 to 5 µM'),
  ('CCN(C(=O)C1CCC(OC)CC1)[C@H]1CCC2(CCN(CCC(C)(C)C)CC2)c2ccccc21 (stereo partly drawn)', 'M1 muscarinic receptor (Homo sapiens, UniProt P11229)', '> 5 µM'),
  ('CC(C)(C)CCN1CCC2(CC[C@@H](N3CCCC3=O)c3ccc(F)cc32)CC1', 'M1 muscarinic receptor (Homo sapiens, UniProt P11229)', '2 to 5 µM'),
  ('CCN(C(=O)C1CCCN1C(C)=O)[C@H]1CCC2(CCN(CCC(C)(C)C)CC2)c2ccccc21 (stereo partly drawn)', 'M1 muscarinic receptor (Homo sapiens, UniProt P11229)', '< 2 µM'),
  ('CCC(=O)N(C)[C@H]1CCC2(CCN(CCC(C)(C)C)CC2)c2ccccc21', 'M1 muscarinic receptor (Homo sapiens, UniProt P11229)', '< 2 µM'),
  ('CSC(C)CCN1CCC2(CC[C@H](NC(C)=O)c3ccccc32)CC1 (stereo partly drawn)', 'M1 muscarinic receptor (Homo sapiens, UniProt P11229)', '2 to 5 µM'),
  ('C[C@H](C(=O)N[C@@H]1CCC2(CCN(CCC(C)(C)C)CC2)c2ccccc21)N1CCCC1=O', 'M1 muscarinic receptor (Homo sapiens, UniProt P11229)', '2 to 5 µM'),
  ('CC(C)(C)CCN1CCC2(CC[C@@H](NC(=O)CN3CCCC3=O)c3ccc(F)cc32)CC1', 'M1 muscarinic receptor (Homo sapiens, UniProt P11229)', '< 2 µM'),
  ('CC(=O)N[C@H](C)C(=O)N[C@@H]1CCC2(CCN(CCC(C)(C)C)CC2)c2cc(F)ccc21', 'M1 muscarinic receptor (Homo sapiens, UniProt P11229)', '< 2 µM'),
  ('COCCC(=O)N[C@H]1CCC2(CCN(CCC(C)(C)C)CC2)c2ccccc21', 'M1 muscarinic receptor (Homo sapiens, UniProt P11229)', '< 2 µM'),
  ('CCN(C(=O)CCC(C)=O)[C@H]1CCC2(CCN(CCC(C)(C)C)CC2)c2ccccc21', 'M1 muscarinic receptor (Homo sapiens, UniProt P11229)', '< 2 µM');

---

- study_target: UniProtKB P11229
- assay_comment: Functional mobilization of intracellular calcium (FLIPR) in CHO cells expressing M1
- test_context: CHO cells expressing M1, FLIPR calcium
# key: entry, value: EC50
measurement_name: EC50

INSERT INTO results (molecule, study_target, measurement_name, result) VALUES
  ('C[C@H](C(=O)N[C@@H]1CCC2(CCN(CCC(C)(C)C)CC2)c2ccccc21)N1CCCCC1=O', 'UniProtKB P11229', 'EC50', '> 5000 nM'),
  ('CC(=O)NCCC(=O)N[C@@H]1CCC2(CCN(CCC(C)(C)C)CC2)c2cc(F)ccc21', 'UniProtKB P11229', 'EC50', '< 2000 nM'),
  ('CC(C)[C@@H](C(=O)N[C@H]1CCC2(CCN(CCC(C)(C)C)CC2)c2ccccc21)N1CCCC1=O', 'UniProtKB P11229', 'EC50', '< 2000 nM'),
  ('CC(C)CCN1CCC2(CC[C@H](NC(=O)C3CC3)c3ccccc32)CC1', 'UniProtKB P11229', 'EC50', '< 2000 nM'),
  ('Cn1cc(C(=O)N[C@H]2CCC3(CCN(CCC(C)(C)C)CC3)c3ccccc32)cn1', 'UniProtKB P11229', 'EC50', '< 2000 nM'),
  ('Cn1cc(C(=O)N[C@@H]2CCC3(CCN(CCC(C)(C)C)CC3)c3ccccc32)cn1', 'UniProtKB P11229', 'EC50', '> 5000 nM'),
  ('CC(=O)N1CCCC(C(=O)N[C@@H]2CCC3(CCN(CCC(C)(C)C)CC3)c3ccccc32)C1 (stereo partly shown)', 'UniProtKB P11229', 'EC50', '2000 to 5000 nM');
